The values you see were collected from the supplement of paper PMC10567573.

B1: FBXO39 (parent)
chain: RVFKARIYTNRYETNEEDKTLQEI

variants of: B1; test: protein stability index of a GFP-peptide fusion (GPS, HEK-293T) (PSI 1-6); higher = more stable; settings: c terminus: a fixed tail appended;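 further: lentivirally expressed fusions sorted by FACS into six bins by GFP to DsRed ratio, PSI derived from sequencing read proportions per bin multiplied by bin number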
RECORDED METRIC: protein stability index
# respond with the number and nothing more

Worked set:
RVFKARIYTNRYETNEEDKTLQSI [E23S] = 2.32
RVFKARIYTNRYETNEEDKYLQEI [T20Y] = 2.17
RVFKARIRTNRYETNEEDKTLQEI [Y8R] = 3.15
RVFKARIMTNRYETNEEDKTLQEI [Y8M] = 2.77
RVFKARIYTNRIETNEEDKTLQEI [Y12I] = 3.29

// below: protein stability index requested for another variant
Problem: Let me know recorded protein stability index for RVFKARGYTNRYETNEEDKTLQEI [I7G] , thanks.
Solution: 3.64
